- ASSAY_PROCEDURE: Inhibition of rabbit small-intestinal Acyl coenzyme A:cholesterol acyltransferase 1
- Parameters: species or system Oryctolagus cuniculus
METRIC: IC50 (nM)
Report the value in nM with no unit label.

These recorded examples may help you get a feel for the data.
smiles_notation=CCCCCCCCCCOc1ccc2c(=O)ccoc2c1NC(=O)C(C)(C)C unit_info=nM obs_value=130
smiles_notation=Cc1ccc2c(c1NC(=O)C(C)(C)CCCCOc1ccc(Cl)cc1)OCCC2=O unit_info=nM obs_value=510

Next item in the queue.
QUERY: Output IC50 of `CCCOCCCCCCC(C)(C)C(=O)Nc1c(OC)ccc2c1OCCC2=O`
RESULT: 30
